# Assayed System: stromelysin (Homo sapiens)
# Sequence (P08254 100-477): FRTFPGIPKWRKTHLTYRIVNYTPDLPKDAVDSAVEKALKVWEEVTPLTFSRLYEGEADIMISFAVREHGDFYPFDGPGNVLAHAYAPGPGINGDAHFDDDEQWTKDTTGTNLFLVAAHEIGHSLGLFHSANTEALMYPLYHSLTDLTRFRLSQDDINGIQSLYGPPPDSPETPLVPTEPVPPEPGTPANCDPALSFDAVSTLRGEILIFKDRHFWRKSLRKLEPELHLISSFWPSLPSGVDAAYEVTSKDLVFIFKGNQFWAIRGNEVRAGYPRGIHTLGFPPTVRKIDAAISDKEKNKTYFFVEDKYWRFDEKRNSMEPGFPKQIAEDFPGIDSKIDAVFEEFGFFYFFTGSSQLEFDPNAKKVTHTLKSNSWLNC
Measured Attribute: pIC50
Answers are plain numbers, as −log10 of the molar value.

Q. Returns the measured pIC50 for the input compound. Input: `C=CC[C@H](C(=O)NO)[C@@H](CC(C)C)C(=O)N[C@@H](Cc1ccccc1)C(=O)NCc1ccccc1`
A. 8.30
